Ref: paper PMC12040637

Tested on: Hep G2 cells
ASSAY_DETAILS: CAA assay
Format: cell-based
TEST_SETTINGS: Homo sapiens, HepG2, read-out: CAA IC50
OBSERVABLE: IC50 (µg/mL)
Unit µg/mL implied. Number only.

Here is how some molecules turned out for IC50.
MOLECULE	IC50, µg/mL
C[C@H]1[C@H](C)CC[C@]2(C(=O)O)CC[C@]3(C)C(=CC[C@@H]4[C@@]5(C)CC[C@H](O)C(C)(C)[C@@H]5CC[C@]43C)[C@H]12 [Ursolic acid]	184
O=C(/C=C/c1ccc(O)c(O)c1)O[C@H](Cc1ccc(O)c(O)c1)C(=O)O [Rosmarinic acid]	171

Now for the molecule whose IC50 we want.
Exercise: Entry O=c1c(O)c(-c2ccc(O)c(O)c2)oc2cc(O)cc(O)c12 [Quercetin, quercetin, reference compound] has what IC50?
Key: 38.9
